Source listed as PubChem BioAssay (NCATS).

# assay-summary: Quantitative High-Throughput drug screen in 47 multiple myeloma cell lines against the NCATS MIPE library collection: INA6_PLB cell viability assay (AID 1918965; further: potency means the concentration at half of the fitted maximal effect; nearly all actives have a fitted effect of over 55% in size)
# experimental-context: INA6 myeloma viability, CellTiter-Glo ATP luminescence, 48 h; series mostly up to 45.8 µM
# Description: PI: Beverly A. Mock Ph.D. Laboratory of Cancer Biology and Genetics, Center for Cancer Research, National Cancer Institute, National Institute of Health, Bethesda, Maryland […] 5; Detector; 425V; Luminescence; Viewlux PerkinElmer. […] 1. […] Briefly, the corresponding myeloma cell lines were screened in 1,536-well plates with 500 cells, 5-uL per well for inhibition of cell viability (assessed by measuring ATP levels with CellTiterGlo). […]
Results filed as inconclusive are left out. The source made the active and inactive calls. The call rests on the fitted dose curve; in most records, active means well fitted cell-killing curve with a large enough effect; inconclusive means small, poorly fitted or top-dose-only effect, or effect the other way; inactive means no such curve, though single readings can be large or run the other way.
reported-metric: Potency

Consider the following illustrative entries.
# structure, Potency
data = [
    ("C=CC[C@@H]1C=C(C)C[C@H](C)C[C@H](OC)[C@H]2O[C@@](O)(C(=O)C(=O)N3CCCC[C@H]3C(=O)O[C@H](C(C)=C[C@@H]3CC[C@H](O)[C@H](OC)C3)[C@@H](C)[C@@H](O)CC1=O)[C@@H](C)C[C@@H]2OC", "935 nM (active)"),
    ("CC(=O)NCC(=O)N1[C@H]2CC[C@H]1c1cc(Nc3ncc(C(F)(F)F)c(NC4CCC4)n3)ccc12", "935 nM (active)"),
    ("CCOC(=O)[C@@H](N)Cc1ccc(-c2cc(O[C@H](c3ccc(Cl)cc3-n3ccc(C)n3)C(F)(F)F)nc(N)n2)cc1", "23500 nM (active)"),
]

Record Potency per entry; entries follow.
1. NC(=O)Nc1sc(-c2ccc(F)cc2)cc1C(N)=O
2. Cc1ccc(-n2[nH]c(C)c(N=Nc3cccc(-c4cccc(C(=O)O)c4)c3O)c2=O)cc1C

Result:
1: 332 nM (active); 2: 23500 nM (active)

----------
# assay-summary: qHTS of pediatric cancer cell lines to identify multiple opportunities for drug repurposing: Primary screen for SK-N-MC cells (AID 1347093)
# experimental-context: SK-N-MC viability, CellTiter-Glo luminescence, 48 h; series mostly up to 46 µM
# Experimental: Drug repurposing or repositioning has been offered as a strategy for drug development in oncology programs. […] [1] Shen, M et al. Quantitative high-throughput phenotypic screening of pediatric cancer cell lines identifies multiple opportunities for drug repurposing. […] Cells were assayed in growth media at a density of 500-1,000 cells/well. […] After a 15 min incubation at room temperature, samples were analyzed for luminescence intensity using a ViewLux High-throughput CCD imager equipped with clear filters.
Results filed as inconclusive are left out. Active and inactive are the calls of the source. Calls come from the whole dose curve; as a rule, active = well fitted cell-killing curve with a large enough effect; inconclusive = small, poorly fitted or top-dose-only effect; inactive = no such curve, though single readings can be large or run the other way.
Permitted responses: 1 (yes) = active, 0 (no) = inactive

The following molecules have reported results that may help.
# structure, category-label
records = [
    ("O=C(O)C[C@H](O)C[C@H](O)C=Cc1c(C2CC2)nc2ccccc2c1-c1ccc(F)cc1", "1 (yes)"),
    ("CN(C)CC[C@H](c1ccc(Cl)cc1)c1ccccn1", "1 (yes)"),
    ("COc1ccc(C(C)=O)c(O)c1", "1 (yes)"),
    ("Cc1cc(-c2nnc3n2CCCCC3)c(C)n1-c1ccccc1", "0 (no)"),
    ("CC1(C)[C@H](O[C@H]2O[C@H](C(=O)O)[C@@H](O)[C@H](O)[C@H]2O[C@@H]2O[C@H](C(=O)O)[C@@H](O)[C@H](O)[C@H]2O)CC[C@@]2(C)[C@H]1CC[C@]1(C)[C@H]2C(=O)C=C2[C@H]3C[C@@](C)(C(=O)O)CC[C@]3(C)CC[C@]21C", "0 (no)"),
    ("CC(C)(C)[N+]([O-])=Cc1ccc(S(=O)(=O)O)cc1S(=O)(=O)O", "0 (no)"),
]

Problem: Recorded test outcome, item `CN(C)CC(=O)N1CCC(c2ccc(NC(=O)c3ncc(C#N)[nH]3)c(C3=CCCCC3)c2)CC1`
Result: 1 (yes)

Problem: Recorded test outcome, item `COc1cc(N2CCC(C(N)=O)CC2)ccc1Nc1nc(N)c(Cl)c(Nc2ccccc2S(=O)(=O)C(C)C)n1`
Result: 1 (yes)

----------
# Tested on: C2A
# assay-summary: qHTS profiling for inhibitors of Plasmodium falciparum proliferation (AID 504749); further: nearly all actives have a fitted effect of over 60% in size
# experimental-context: P. falciparum in erythrocytes, SYBR Green DNA, 72 h; series mostly up to 28.7 µM
Records with an inconclusive call do not appear. The source made the active and inactive calls. Calls follow the shape of the dose curve; as a rule, active = well fitted inhibition curve with a large enough effect; inconclusive = small, poorly fitted or top-dose-only effect; inactive = flat fitted curve, though single readings scatter.
Permitted responses: Yes = active, No = inactive

The following compounds have reported results that may help.
# compound, category-label
measured = [
    ("Nc1nc2c(c(=O)[nH]1)N(C=O)[C@H](CNc1ccc(C(=O)N[C@@H](CCC(=O)O)C(=O)O)cc1)CN2", "No"),
    ("OCC(O)C(O)C(O)CO (stereo unspecified)", "No"),
    ("COc1ccc([C@@H]2CNC(=O)C2)cc1OC1CCCC1", "No"),
    ("COc1ccc2c(c1OC)C(=O)OC2[C@H]1c2c(cc3c(c2OC)OCO3)CCN1C (stereo partly specified)", "No"),
]

Problem: Recorded test outcome, item CCC(C(=O)O)C1CCC(C)C(C(C)C(O)C(C)C(=O)C(CC)C2OC3(C=CC(O)[C@@]4(CC[C@](C)(C5CC[C@@](O)(CC)C(C)O5)O4)O3)C(C)CC2C)O1 (stereo partly specified)
Result: Yes

Problem: Recorded test outcome, item CCCCCCCCCCCC(CC1OC(=O)C1CCCCCC)OC(=O)C(CC(C)C)NC=O (stereo unspecified)
Result: Yes

----------
# assay-summary: qHTS of pediatric cancer cell lines to identify multiple opportunities for drug repurposing: Primary screen for OHS-50 cells (AID 1347103); further: nearly all actives have a fitted effect of over 40% in size
# experimental-context: OHS-50 osteosarcoma viability, CellTiter-Glo luminescence, 48 h; series mostly up to 57.3 µM
Records with an inconclusive call do not appear. Activity calls are given as the source filed them. Calls follow the shape of the dose curve; as a rule, active = well fitted cell-killing curve with a large enough effect; inconclusive = small, poorly fitted or top-dose-only effect; inactive = no such curve, though single readings can be large or run the other way.
Permitted responses: Yes = active, No = inactive

# compound, category-label
data = [
    ("Cc1cnn(C)c1C(=O)Nc1cc(Nc2ccc3c(C=Cc4ccccn4)n[nH]c3c2)ccc1F", "Yes"),
    ("Oc1cc2c(cc1O)C1c3ccc(O)c(O)c3OCC1(O)C2 (centres undefined)", "No"),
    ("CC(=O)O[C@H]1C[C@@H]2CC[C@H]3[C@H]4C[C@H]([N+]5(C)CCCCC5)[C@@H](OC(C)=O)[C@@]4(C)CC[C@@H]3[C@@]2(C)C[C@H]1N1CCCCC1", "No"),
    ("CCCCCCCCc1ccc(CCC(N)(CO)CO)cc1", "Yes"),
    ("CC(C)(N)c1ccc(-c2nc3ccccc3nc2-c2ccccc2)cc1", "Yes"),
]

In the following, a different compound is considered.
Problem: Recorded test outcome, item `CCc1cnn2c(NCc3ccc[n+]([O-])c3)cc(N3CCCC[C@@H]3CCO)nc12`
Result: Yes

----------
# assay-summary: Quantitative High-Throughput drug screen in 47 multiple myeloma cell lines against the NCATS MIPE library collection: Karpas620_DSMZ cell viability assay (AID 1918959); further: nearly all actives have a fitted effect of over 30% in size
# experimental-context: Karpas620 myeloma viability, CellTiter-Glo ATP luminescence, 48 h; series mostly up to 45.8 µM
Results filed as inconclusive are left out. The source made the active and inactive calls. Calls follow the shape of the dose curve; as a rule, active = well fitted cell-killing curve with a large enough effect; inconclusive = small, poorly fitted or top-dose-only effect, or effect the other way; inactive = no such curve, though single readings can be large or run the other way.
Permitted responses: T for active, F for inactive

The following compounds have reported results that may help.
# compound, category-label
rows = [
    ("Nc1nc(=O)n([C@H]2CSC(CO)O2)cc1F (some centres undefined)", "F"),
    ("NC(=O)N1CCC(CC(=O)N2CCC([C@H]3c4ncc(Br)cc4CCc4cc(Cl)cc(Br)c43)CC2)CC1", "T"),
    ("O=C(Nc1nnc(-c2ccco2)o1)c1cc(-c2ccccc2)nc2ccccc12", "T"),
]

Problem: Recorded test outcome, item `Oc1cc(-c2nc(-c3ccccc3)[nH]c2-c2ccncc2)ccc1Cl`
Result: T

Problem: Recorded test outcome, item `COc1cc2c(cc1OC)[C@@H]1C(=O)c3ccc4c(c3O[C@@H]1CO2)C=CC(C)(C)O4`
Result: T

Problem: Recorded test outcome, item `C#C[C@]1(O)CC[C@@H]2[C@@H]3CCC4=CC(=O)CC[C@@H]4[C@H]3CC[C@@]21CC`
Result: F

Problem: Recorded test outcome, item C[C@@H]1CC[C@@]2(OC1)OC1CC3C4CC=C5CC(O)CCC5(C)C4CCC3(C)C1[C@@H]2C (some centres undefined)
Result: F

Problem: Recorded test outcome, item C=C1CCC2[C@](C)(CO)C(O)CC[C@]2(C)C1CC=C1C(=O)OCC1O (some centres undefined)
Result: F

Problem: Recorded test outcome, item `COc1cccc2c1C(=O)c1c(O)c3c(c(O)c1C2=O)C[C@@](O)(C(=O)CO)C[C@@H]3O[C@H]1C[C@H](N)[C@@H](O)[C@H](C)O1`
Result: T
